Exercise: state measured RP-LC retention time for each of the compounds provided.
# measurement.protocol: gradient 5% acetonitrile 3 min, to 50% in 2 min, to 85% in 15 min, held 3 min, 100 µL/min
# test.conditions: column: Zorbax Extend-C18 2.1 x 50 mm; eluents: water / acetonitrile, 0.1% formic acid
Numeric answer only, unit s assumed.

Query string: Fill blank: measured RP-LC retention time of the compound Cc1sc(NC(=O)CC(C)C)nc1-c1ccc2c(c1)N(C)C(=O)CO2 is ____.
Result string: 910

Query string: Another: Cc1cc2c(cc1S(=O)(=O)N1CCCC1C(=O)NCc1ccc3c(c1)OCO3)OCC(=O)N2 (centres undefined)
Result string: 718

Query string: Another: CCOC(=O)C1CCN(C(=O)CCc2cc3cc(OC)ccc3[nH]c2=O)CC1
Result string: 701

Query string: Another: Cc1ccc(-c2cc(C(=O)O)c3ccc(Br)cc3n2)cc1C
Result string: 1240

Query string: Another: Cc1ccc(-c2csc(Cc3nc(-c4ccc5c(c4)OCO5)no3)n2)cc1C
Result string: 1280

Query string: Another: CCOC(=O)c1c(C)[nH]c(C(=O)N2CCC(CC(=O)NC3CCCCC3)CC2)c1C
Result string: 778

Query string: Another: COc1ccc(-c2ccc(=O)n(CCNC(=O)c3ccno3)n2)cc1
Result string: 628

Query string: Another: Cc1ccc2oc(-c3noc(C(=O)NCc4ccc5c(c4)OCO5)n3)c(C)c2c1
Result string: 1120

Query string: Another: O=C(c1ccc2cc[nH]c2c1)N1CCC(c2nc(C3CC3)n[nH]2)CC1
Result string: 546

Query string: Another: CCc1ccc(N2C(=O)C3N=NN(Cc4nc(-c5ccc(Br)cc5)no4)C3C2=O)cc1 (centres undefined)
Result string: 1130

Query string: Another: COCCN1CCC(N2CCCN(C(=O)NCCc3ccccc3)CC2)C1=O (centres undefined)
Result string: 526

Query string: Another: Cc1nc2cccnc2n1CC1CCCN(S(=O)(=O)Cc2ccc(Cl)cc2)C1 (centres undefined)
Result string: 718

Query string: Another: CCCN1C(=O)C(CC(=O)NCC(C)C)Sc2ncccc21 (centres undefined)
Result string: 741

Query string: Another: O=C(C1=CN(c2ccccc2)c2cc(F)ccc2S1(=O)=O)N1CCOCC1
Result string: 754

Query string: Another: Cc1ccc(N(CN2CCCC2=O)C(=O)c2ccc(C)c(C)c2)cc1
Result string: 783

Query string: Another: O=C(NCc1ccccn1)c1c2c(nc3ccccc13)C(=O)N(C1CCCCC1)C2
Result string: 626

Query string: Another: CC(C)Cn1c(=O)c(C(=O)NC2CCCCCC2)nc2cccnc21
Result string: 1090

Query string: Another: CCN1CCn2c(nc3cc(C(=O)NCc4ccc(C(F)(F)F)cc4)ccc32)C1=O
Result string: 741

Query string: Another: CCOC(=O)c1sc(NC(=O)COc2ccc(Cl)cc2)nc1C
Result string: 970

Query string: Another: CCN1c2ccccc2C(=O)NC12CCN(C(=O)Nc1cccc(OC)c1)CC2
Result string: 703

Query string: Another: CC(C)NC(=O)C1CC(=O)N(CCc2c[nH]c3ccc(Cl)cc23)C1 (centres undefined)
Result string: 731

Query string: Another: COc1ccccc1NC(=O)N1CCC(CNC(=O)C(=O)Nc2cccnc2)CC1
Result string: 591

Query string: Another: O=C1CC(c2ccccc2)N(C2CCC2)CCCCCN1 (centres undefined)
Result string: 595

Query string: Another: CCCCN1CCN(C(=O)c2cnc(-c3ccccc3)nc2-c2ccncc2)CC1
Result string: 638

Query string: Another: CCOC[C@@H]1CC(F)(F)CN1C1CCN(Cc2ccc3cc[nH]c3c2)CC1
Result string: 656

Query string: Another: CCCn1cc(C(=O)NCCCOC)c(S(=O)(=O)N2CCN(c3cccc(Cl)c3)CC2)n1
Result string: 1020

Query string: Another: O=C(Cn1c(=O)c2nncn2c2ncccc21)NCc1cc(F)ccc1F
Result string: 654

Query string: Another: COc1ccc2[nH]cc(CCNC(=O)CN3C(=O)CSc4cccn4-c4ccccc43)c2c1
Result string: 859

Query string: Another: CC(C)c1ccc(S(=O)(=O)N2CCC(c3ccncc3)CC2)cc1
Result string: 749

Query string: Another: CCOc1ccc(-c2noc(CSc3nccn3-c3ccc(C)cc3)n2)cc1OC
Result string: 908

Query string: Another: Cc1ccc(-c2nc(C3CC(=O)N(c4ccc(F)c(Cl)c4)C3)no2)cc1 (centres undefined)
Result string: 1160

Query string: Another: C=CCN1CC(c2nc3ccccc3n2Cc2c(F)cccc2Cl)CC1=O (centres undefined)
Result string: 688

Query string: Another: CCCN(C)c1nccnc1OC1CCN(C(=O)C2CC2)C1 (centres undefined)
Result string: 724

Query string: Another: COC(=O)c1c(NC(=O)CCc2ccc(C)o2)sc(C)c1C
Result string: 1110

Query string: Another: Cn1nc(-c2nnc(-c3ccccc3)o2)c2c1CCN(S(=O)(=O)c1cccc(Cl)c1)C2
Result string: 990

Query string: Another: COc1ccc(-c2nc(-c3ccc4c(c3)oc(=O)n4C)no2)c(OC)c1
Result string: 959

Query string: Another: Cc1ccc(N(C)S(=O)(=O)c2cc3n(c2)CCCN(C(C)C)C3=O)cc1
Result string: 865

Query string: Another: COc1ccc(OC)c(NC(=O)NC(C(=O)N2CCc3ccccc32)C(C)C)c1 (centres undefined)
Result string: 984

Query string: Another: CC(C)C(=O)N1CCc2c(c(C(=O)N3CCC(C(=O)N4CCCCCC4)CC3)nn2C)C1
Result string: 656
